B1: scFv; the commonest letter at each place (parent)
chain 1: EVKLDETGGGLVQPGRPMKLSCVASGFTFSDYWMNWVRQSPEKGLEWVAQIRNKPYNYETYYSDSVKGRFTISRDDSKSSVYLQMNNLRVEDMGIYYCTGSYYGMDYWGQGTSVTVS
chain 2: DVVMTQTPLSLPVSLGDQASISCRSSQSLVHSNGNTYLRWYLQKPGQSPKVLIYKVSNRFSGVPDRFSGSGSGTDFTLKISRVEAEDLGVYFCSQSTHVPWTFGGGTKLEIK

- Variants of: B1
- experiment notes: yeast surface expression (ratio to wild type); higher = more expressed
- condition parameters: format: scFv 4-4-20, heavy + light
Exercise: for every item that follows, state its recorded yeast surface expression.

Consider the reported yeast surface expression for these variants:
Q. Could you tell me which yeast surface expression is on file for chain 1 Y32Q W36N V37K ?
A. 0.902

Q. Same again, this time with chain 1 T28H
A. 0.965

Q. Also, chain 1 G100T please.
A. 0.994

// for each variant below, give its yeast surface expression
1. chain 1 S101V Y103V
2. chain 1 D106W W108F
3. chain 1 M105A D106V

A.
1. 0.316
2. 0.225
3. 0.494

Dear reader, for each entry below, please note its yeast surface expression.
1. chain 1 G100A
2. chain 1 F29Q W36T

A.
1. 0.964
2. 0.359

Working through the 5 variants below one at a time, give yeast surface expression for each.
1. chain 1 G100L G109R
2. chain 1 S101E Y102Q W108C
3. chain 1 Y103Q M105Q
4. chain 1 Y32G M34P
5. chain 1 M105T G109C

A.
1: 0.268; 2: 0.541; 3: 1.14; 4: 0.545; 5: 0.27

All values here come from the FLAb antibody collection (doi:10.7554/elife.23156).
